Where do the numbers come from? From patent US8466162B2.

# Tested on: BT474 cells
# measurement.protocol: alamarBlue BT474 cell assay (antiproliferative/cytotoxicity)
# Assay type: cell-based
# condition.context: BT-474 human breast cancer cell line, 5-6 days incubation
measured.attribute: EC50 (µM)
A number alone suffices; assume µM.

[ask] Record request: EC50 value, item `COc1ncc(C#Cc2c(C)ncnc2-c2ccc(C)nc2)cc1NS(=O)(=O)c1ccc(F)cc1F`
[reply] 0.043

[ask] Record request: EC50 value, item `CCc1ncnc(-c2ccc(CN)nc2)c1C#Cc1cnc(C)c(NS(=O)(=O)c2ccccc2C(F)(F)F)c1`
[reply] 1.21

[ask] Record request: EC50 value, item `Cc1ncc(C#Cc2c(C)ncnc2-c2ccc(C(=O)N3CCN(C)CC3)c(F)c2)cc1NS(C)(=O)=O`
[reply] 1.02

[ask] Record request: EC50 value, item `CCc1ccccc1S(=O)(=O)Nc1cc(C#Cc2c(CC)ncnc2-c2ccnc(C)c2)cnc1C`
[reply] 0.175
